What pIC50 was measured for each of the following?
target: Recombinant human JAK2 (Homo sapiens); construct: catalytic domain (amino acids 808-1132; catalog number PV4210); GST; assay: JAK2 Ulight-JAK1 peptide assay; details: Ulight-JAK1(tyr1023) peptide, 7.5 μM ATP
Sequence (O60674 808-1132): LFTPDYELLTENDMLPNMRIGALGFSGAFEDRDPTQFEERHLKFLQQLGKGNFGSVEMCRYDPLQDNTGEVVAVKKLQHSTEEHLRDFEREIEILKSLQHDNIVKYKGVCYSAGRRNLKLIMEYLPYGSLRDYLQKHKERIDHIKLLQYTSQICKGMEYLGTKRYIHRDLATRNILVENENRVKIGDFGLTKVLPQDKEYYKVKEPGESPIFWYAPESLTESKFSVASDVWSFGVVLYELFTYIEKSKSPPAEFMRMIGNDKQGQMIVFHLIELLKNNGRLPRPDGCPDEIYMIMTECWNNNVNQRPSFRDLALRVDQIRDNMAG
pIC50: −log10 of the molar value.

Record excerpt, results attached:
>  <cpd-smiles>
CS(=O)(=O)N1CC[C@@H](Oc2ccc(-c3cccn4nc(NC(=O)C5CC5)cc34)cc2)C1

>  <target-under-test>
Recombinant human JAK2 (Homo sapiens)

>  <recorded-measurement>
< 6.00

$$$$
>  <cpd-smiles>
O=C(NCCOc1ccccc1)c1ccc(-c2cccn3nc(NC(=O)C4CC4)cc23)cc1

>  <target-under-test>
Recombinant human JAK2 (Homo sapiens)

>  <recorded-measurement>
7.00 to 11.00

$$$$
>  <cpd-smiles>
CC(=O)Nc1cc2c(-c3ccc(CC(=O)N4CC(F)(F)C4)cc3)cccn2n1

>  <target-under-test>
Recombinant human JAK2 (Homo sapiens)

>  <recorded-measurement>
7.00 to 11.00

$$$$

Prompt: Recorded pIC50 for `CS(=O)(=O)C1CCN(Cc2ccc(-c3cccn4nc(NC(=O)C5CC5)c(Cl)c34)cc2)CC1` with Recombinant human JAK2 (Homo sapiens), please?
Response: 6.00 to 6.30

---

What IC50 was measured for each of the following?
target: Recombinant human JAK3 catalytic domain (Homo sapiens, UniProt P52333); construct: catalytic domain (amino acids 795-1124; catalog number 08-046); experiment: JAK3 inhibition assay; conditions: polyGT substrate, 33P-gamma-ATP filter assay, 1 μM ATP
Sequence (P52333 795-1124): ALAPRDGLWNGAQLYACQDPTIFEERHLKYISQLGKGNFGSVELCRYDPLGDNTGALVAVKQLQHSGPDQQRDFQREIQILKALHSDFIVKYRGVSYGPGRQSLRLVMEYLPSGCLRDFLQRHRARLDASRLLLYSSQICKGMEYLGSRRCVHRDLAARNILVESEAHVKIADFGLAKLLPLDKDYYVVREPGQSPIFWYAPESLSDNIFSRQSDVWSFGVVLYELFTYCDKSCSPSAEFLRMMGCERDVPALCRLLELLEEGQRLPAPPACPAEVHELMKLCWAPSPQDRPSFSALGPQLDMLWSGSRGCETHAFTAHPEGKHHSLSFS

Record excerpt, results attached:
>  <molecule>
O=C(NCCc1ccccc1)c1ccc(-c2cccn3nc(NC(=O)C4CC4)cc23)cc1 [Compound 5]

>  <target-under-test>
Recombinant human JAK3 catalytic domain (Homo sapiens, UniProt P52333)

>  <value-type>
IC50

>  <recorded-measurement>
> 1000 nM

$$$$
>  <molecule>
O=C(Nc1cc2c(-c3ccc(OCc4cccnc4)cc3)cccn2n1)C1CC1 [Compound 8]

>  <target-under-test>
Recombinant human JAK3 catalytic domain (Homo sapiens, UniProt P52333)

>  <value-type>
IC50

>  <recorded-measurement>
101 to 500 nM

$$$$
>  <molecule>
C[C@@H](c1ccc(-c2cccn3nc(NC(=O)C4CC4)cc23)cc1)N1CCN(S(C)(=O)=O)CC1 [Compound 47]

>  <target-under-test>
Recombinant human JAK3 catalytic domain (Homo sapiens, UniProt P52333)

>  <value-type>
IC50

>  <recorded-measurement>
0.01 to 100 nM

$$$$
>  <molecule>
CS(=O)(=O)C1CCN(Cc2ccc(-c3cccn4nc(NC(=O)C5CC5)c(Cl)c34)cc2)CC1 [Compound 19]

>  <target-under-test>
Recombinant human JAK3 catalytic domain (Homo sapiens, UniProt P52333)

>  <value-type>
IC50

>  <recorded-measurement>
> 1000 nM

$$$$
>  <molecule>
CC(=O)Nc1cc2c(-c3ccc(CN4CCC(S(C)(=O)=O)CC4)c(F)c3)cccn2n1 [Compound 29]

>  <target-under-test>
Recombinant human JAK3 catalytic domain (Homo sapiens, UniProt P52333)

>  <value-type>
IC50

>  <recorded-measurement>
101 to 500 nM

$$$$

For each listed entry, give its IC50.
1. CC(c1ccc(-c2cccn3nc(NC(=O)C4CC4)cc23)cc1)N1CCN(S(C)(=O)=O)CC1 (centres unmarked) [Compound 43]
2. CS(=O)(=O)N1CCN(Cc2ccc(-c3cccn4nc(NC(=O)C5CC5)cc34)cn2)CC1 [Compound 23]
3. CS(=O)(=O)N1CCN(Cc2ccc(-c3cccn4nc(NC(=O)C5CC5)cc34)cc2)CC1 [Compound 15]

Response:
1. 0.01 to 100 nM
2. 101 to 500 nM
3. 0.01 to 100 nM

---

What IC50 was measured for each of the following?
target: Recombinant human JAK2 (Homo sapiens); construct: catalytic domain (amino acids 808-1132; catalog number PV4210); GST; purchased Invitrogen PV4210; test: JAK2 Ulight-JAK1 peptide assay; type: biochemical; details: Ulight-JAK1(tyr1023) peptide, 7.5 μM ATP

Record excerpt, results attached:
>  <cpd-smiles>
COC(=O)N1CCN(Cc2ccc(-c3cccn4nc(NC(C)=O)cc34)cc2)CC1

>  <value-type>
IC50

>  <recorded-measurement>
101 to 500 nM

$$$$
>  <cpd-smiles>
O=C(Nc1nn2cccc(-c3ccc(CN4CCS(=O)(=O)CC4)cc3)c2c1F)C1CC1

>  <value-type>
IC50

>  <recorded-measurement>
0.01 to 100 nM

$$$$
>  <cpd-smiles>
CS(=O)(=O)C1CCN(Cc2ccc(-c3cccn4nc(NC(=O)C5CC5)c(Cl)c34)cc2F)CC1

>  <value-type>
IC50

>  <recorded-measurement>
101 to 500 nM

$$$$

For each listed entry, give its IC50.
1. CC(=O)Nc1cc2c(-c3ccc(CC(=O)N4CCCCC4)cc3)cccn2n1
2. CC(=O)Nc1cc2c(-c3ccc(CC(=O)N4CCOCC4)cc3)cccn2n1

Response:
["0.01 to 100 nM", "0.01 to 100 nM"]

---

Target: Recombinant human JAK1 (Homo sapiens)
Construct: catalytic domain (amino acids 866-1154; catalog number PV4774)
Sequence (P23458 866-1154): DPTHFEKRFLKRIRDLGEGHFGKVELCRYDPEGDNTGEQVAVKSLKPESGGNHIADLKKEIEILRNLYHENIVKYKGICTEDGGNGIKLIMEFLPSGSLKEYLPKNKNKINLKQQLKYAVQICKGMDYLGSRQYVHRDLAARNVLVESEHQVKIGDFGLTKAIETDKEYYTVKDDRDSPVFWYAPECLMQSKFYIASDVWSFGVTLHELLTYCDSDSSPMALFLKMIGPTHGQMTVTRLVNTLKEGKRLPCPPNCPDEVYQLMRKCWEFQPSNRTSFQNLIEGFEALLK
Test: JAK1 Ulight-JAK1 peptide assay
Details: Ulight-JAK1(tyr1023) peptide, 7 μM ATP
Description: Recombinant human JAK1 (catalytic domain, amino acids 866-1154; catalog number PV4774) was purchased from Invitrogen. […] Readout is performed using the Envision with excitation at 320 nm and measuring emission at 615 nm (Perkin Elmer). Kinase activity was calculated by subtracting relative fluorescence units (RFU) obtained in the presence of a positive control inhibitor (10 μM staurosporine) from RFU obtained in the presence of vehicle. […]
pIC50: −log10 of the molar value.
value-type: pIC50

Record excerpt, results attached:
>  <cpd-smiles>
O=C(Nc1cc2c(-c3ccc4c(ccn4Cc4ccccc4)c3)cccn2n1)C1CC1

>  <recorded-measurement>
< 6.00

$$$$
>  <cpd-smiles>
CS(=O)(=O)C1CCN(Cc2ccc(-c3cccn4nc(NC(=O)C5CC5)c(Cl)c34)cc2)CC1

>  <recorded-measurement>
7.00 to 11.00

$$$$
>  <cpd-smiles>
N#Cc1ccc(COc2ccc(-c3cccn4nc(NC(=O)C5CC5)cc34)cc2)cn1

>  <recorded-measurement>
7.00 to 11.00

$$$$
>  <cpd-smiles>
CC(=O)Nc1cc2c(-c3ccc(CN4CCN(S(C)(=O)=O)CC4)cc3)cccn2n1

>  <recorded-measurement>
7.00 to 11.00

$$$$
>  <cpd-smiles>
CC(=O)Nc1cc2c(-c3ccc(CC(=O)N4CCC4)cc3)cccn2n1

>  <recorded-measurement>
6.30 to 7.00

$$$$
>  <cpd-smiles>
C[C@H](c1ccc(-c2cccn3nc(NC(=O)C4CC4)cc23)cc1)N1CCN(S(C)(=O)=O)CC1

>  <recorded-measurement>
7.00 to 11.00

$$$$
>  <cpd-smiles>
COc1ccc(-c2cccn3nc(NC(=O)C4CC4)cc23)cc1

>  <recorded-measurement>
7.00 to 11.00

$$$$
>  <cpd-smiles>
O=C(Nc1nn2cccc(-c3ccc(CN4CCS(=O)(=O)CC4)cc3)c2c1Br)C1CC1

>  <recorded-measurement>
7.00 to 11.00

$$$$
>  <cpd-smiles>
CC(=O)Nc1cc2c(-c3ccc(CN4CCN(S(C)(=O)=O)CC4)c(F)c3)cccn2n1

>  <recorded-measurement>
7.00 to 11.00

$$$$
>  <cpd-smiles>
O=C(Nc1cc2c(-c3ccc(CN4CCS(=O)(=O)CC4)cc3)cccn2n1)C1CC1

>  <recorded-measurement>
7.00 to 11.00

$$$$

For each listed entry, give its pIC50.
1. CC(=O)Nc1cc2c(-c3ccc(C(=O)N4CC(F)(F)C4)cc3)cccn2n1
2. CC(=O)Nc1cc2c(-c3ccc(CC(=O)N4COCC4(C)C)cc3)cccn2n1
3. C[C@@H]1CN(S(C)(=O)=O)CCN1Cc1ccc(-c2cccn3nc(NC(=O)C4CC4)cc23)cc1
4. CS(=O)(=O)N1CCN(Cc2ccc(-c3cccn4nc(NC(=O)C5CC5)cc34)cn2)CC1
5. O=C(Nc1cc2c(-c3ccc4[nH]ccc4c3)cccn2n1)C1CC1

Response:
1. 6.30 to 7.00
2. 6.30 to 7.00
3. 7.00 to 11.00
4. 7.00 to 11.00
5. 6.30 to 7.00
